Tested on: biotinyl-Ile-oxazolone
Experiment: self-aminoacylation, catalytic enhancement (BIO) (fold over background); higher = more active; k-Seq, kA / k0A0; sequences stand for … in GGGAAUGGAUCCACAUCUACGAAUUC…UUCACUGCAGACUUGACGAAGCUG
This sample holds only a part of the variants without activity.
QUANTITY_NAME: self-aminoacylation

AUUACCCUGGUCAUCGAAUGC [Fam2.1 aminoacylation ribozyme variant] ... 1.04
CCACACUUCAAGCAAGCGGAC [Fam1B.1 aminoacylation ribozyme variant] ... 0.959
CUACUUCAAACAAACGGUUUG [Fam1A.1 aminoacylation ribozyme variant] ... 0.803
AUUCUCCUACGUCAUCGGGUG [Fam2.2 aminoacylation ribozyme variant] ... 4.89
CUUCCCCUAGGUCAUCGGGUG [Fam2.2 aminoacylation ribozyme variant] ... 4.92
UUUACCGUGGUCAUCGAGUGA [Fam2.1 aminoacylation ribozyme variant] ... 3.2
AUUAUUCUGGUCAUCGAGUGA [Fam2.1 aminoacylation ribozyme variant] ... 3.4
AUAACCCUGGUCAGCGAGUGA [Fam2.1 aminoacylation ribozyme variant] ... 3.52
AGGUUUGCUAAUAGUCGCGAG [Fam3.1 aminoacylation ribozyme variant] ... 1.56
AUUAACCUGGUCAUCGAGGGA [Fam2.1 aminoacylation ribozyme variant] ... 1.53
AUAACCCUGGUUAUCGAGUGA [Fam2.1 aminoacylation ribozyme variant] ... 3.74
CUACCUCAAACAAUCGGUUUG [Fam1A.1 aminoacylation ribozyme variant] ... 0.904
CCGCACUUAAAGCAAUCGGUC [Fam1B.1 aminoacylation ribozyme variant] ... 1.13
CUACUUCAAUCAAUCGGUCUU [Fam1A.1 aminoacylation ribozyme variant] ... 1.23
AAGUUUGCUUAAAGUCGCAAG [Fam3.1 aminoacylation ribozyme variant] ... 0.972
AAGUUUGCUGAUAGUAGCAAG [Fam3.1 aminoacylation ribozyme variant] ... 0.892
CAGUUUGCUAGUAGUCGCAAG [Fam3.1 aminoacylation ribozyme variant] ... 0.938
CUCCUUCAAACAAUCGGUCGG [Fam1A.1 aminoacylation ribozyme variant] ... 1.32
